- Test system: Fibroblast
- MEASUREMENT_PROTOCOL: Multiplex assay against human fibroblast
- Assay type: toxicity, cell-based
- TEST_PARAMETERS: 12 h, 1 µM, compound concentration 1 uM, replicate 1
Kindly note that classification relies on Population Mitotic Cells (%) with these boundaries: bottom end: < 50%; midrange: ≥ 50% and < 60%; top end: ≥ 60%

Lookup: Looking at Oc1c(CN2CCN(c3ccccn3)CC2)cc(Cl)c2cccnc12 , which class would you pick?
Found: bottom end

Lookup: Classify this compound: CCCC(CCC)C(=O)O
Found: midrange

Lookup: Note: place this compound into its band. Item: CC(C)(C)c1ccc(S(=O)(=O)Nc2ccc(Cl)cc2C(=O)c2cc[n+]([O-])cc2)cc1
Found: bottom end

Lookup: Which of the defined bands does the recorded Population Mitotic Cells (%) of c1cc(OCCCN2CCCCC2)ccc1CN1CCCCC1 sit within?
Found: top end

Lookup: Form: Item = CC[C@H]1OC(=O)[C@H](C)[C@@H](O[C@H]2C[C@@](C)(OC)[C@@H](O)[C@H](C)O2)[C@H](C)[C@@H](O[C@@H]2O[C@H](C)C[C@H](N(C)C)[C@H]2O)[C@@]2(C)CC(C)=C(O2)[C@H](C)[C@@H](O)[C@]1(C)O ; Class = ?
Found: top end

Further cases:
Lookup: Please let me know in which category the item Cc1ccccc1C(=O)Nc1ccc(C(=O)N2CCCC(N(C)C)c3ccccc32)cc1.Cl (stereo not given) belongs.
Found: bottom end

Lookup: In plain terms, what class is C[C@@H]1C[C@H]2[C@@H]3CCC4=CC(=O)C=C[C@]4(C)[C@@]3(F)[C@@H](O)C[C@]2(C)[C@@]1(O)C(=O)CO ?
Found: bottom end

Lookup: Note: place this compound into its band. Item: N#Cc1c(N)nc(SCc2csc(-c3ccc(Cl)cc3)n2)c(C#N)c1-c1ccc(OCCO)cc1
Found: midrange

Lookup: Category of C[C@H]1[C@H]2CC[C@H]3[C@@H]4CC=C5C[C@@H](N(C)C)CC[C@]5(C)[C@H]4CC[C@]23CN1C , please.
Found: midrange

Lookup: # classify by Population Mitotic Cells (%) band: CSc1ccccc1N1CCN(CCCCCC(=O)NC2CCCc3ccccc32)CC1.Cl (stereo not given)
Found: top end

Lookup: Record CCOc1c2c(c(OCC)c3ncccc13)CN(c1ccc(CS(=O)(=O)NC(=O)Cc3ccccc3OC)cc1C)C2=O — which class?
Found: midrange

Lookup: Lab note: which band did N[C@@]1(C(=O)O)CO[C@H]2[C@H](C(=O)O)[C@H]21 land in?
Found: top end

Lookup: Please report the category associated with CN1CCN2c3ncccc3Cc3ccccc3C2C1 (stereo not given) , nothing else.
Found: midrange

Lookup: Looking at C[C@H](NC(=O)c1c(C(F)F)nn(C)c1Oc1cccc(C(F)(F)F)c1)c1ccc(C(=O)O)cc1 , which class would you pick?
Found: top end

Lookup: For this compound, which bin applies? CC(=O)NCCc1c(Cc2ccccc2)[nH]c2ccccc12
Found: midrange

* * *

- Test system: U2OS
- MEASUREMENT_PROTOCOL: Multiplex assay against U2OS
- Type: toxicity, cell-based
- TEST_PARAMETERS: human, 24 h, 1 µM, compound concentration 1 uM, replicate 2
ATTRIBUTE_MEASURED: Population Healthy Nuclei (%)
Numbers only; they are read as %.

Lookup: For the compound CN1CCN2c3ncccc3Cc3ccccc3C2C1 (configuration not stated) , what Population Healthy Nuclei (%) is on record?
Found: 63

Lookup: // Population Healthy Nuclei (%) lookup, key: C[C@H]1[C@H]2CC[C@H]3[C@@H]4CC=C5C[C@@H](N(C)C)CC[C@]5(C)[C@H]4CC[C@]23CN1C
Found: 81

Lookup: Returns the measured Population Healthy Nuclei (%) for the input compound. Input: Cc1nc2ccc(Oc3ccc(F)cc3)cc2c(=O)n1C[C@H]1CCCN(C(C)C)C1.Cl
Found: 71

Lookup: What Population Healthy Nuclei (%) value was documented for this compound, CN(C)CCCc1cc(C(=O)Nc2ccc(-c3ccncc3)cc2)ccc1O.Cl.Cl ?
Found: 77

Lookup: What does the record list as Population Healthy Nuclei (%) for CC[C@H]1OC(=O)[C@H](C)[C@@H](O[C@H]2C[C@@](C)(OC)[C@@H](O)[C@H](C)O2)[C@H](C)[C@@H](O[C@@H]2O[C@H](C)C[C@H](N(C)C)[C@H]2O)[C@@]2(C)CC(C)=C(O2)[C@H](C)[C@@H](O)[C@]1(C)O ?
Found: 64

Continuing:
Lookup: Item under review: COc1cc(NC(=O)CCN2CCC(OC(=O)Nc3ccccc3-c3ccccc3)CC2)c(Cl)cc1CNC[C@H](O)c1ccc(O)c2[nH]c(=O)ccc12 . Reported Population Healthy Nuclei (%)?
Found: 75

Lookup: Quick check: Population Healthy Nuclei (%) of CCCC(CCC)C(=O)O ?
Found: 74

Lookup: Given the compound CC(C)(C)c1ccc(S(=O)(=O)Nc2ccc(Cl)cc2C(=O)c2cc[n+]([O-])cc2)cc1 , what is its reported Population Healthy Nuclei (%)?
Found: 74

Lookup: Form field: reported Population Healthy Nuclei (%) of COc1c(C)cc(NC(=O)c2nn(Cc3ccc(F)cc3)c3c2CN(C(=O)c2ccc[nH]2)C[C@]3(C)C(N)=O)cc1C
Found: 70

Lookup: What value of Population Healthy Nuclei (%) has been recorded for this entry: CC1(COc2ccc3c(c2)ncn3-c2ccc3cccc(N4CCC(N)CC4)c3n2)COC1
Found: 62

Lookup: What Population Healthy Nuclei (%) value was documented for this compound, CNC[C@H](O)c1ccc(O)c(O)c1 [EPINEPHRINE] ?
Found: 68

Lookup: What does the data say about its Population Healthy Nuclei (%)? Entry: C[C@@H]1C[C@H]2[C@@H]3CCC4=CC(=O)C=C[C@]4(C)[C@@]3(F)[C@@H](O)C[C@]2(C)[C@@]1(O)C(=O)CO
Found: 73

Lookup: Data request, read-out Population Healthy Nuclei (%), for Cc1ccc(F)cc1C(=O)Nc1ccc(C(=O)N2Cc3cccn3Cc3ccccc32)c(Cl)c1
Found: 81

Lookup: Fill blank: measured Population Healthy Nuclei (%) of the compound O=C(O)c1cc2ccccc2c(Cc2c(O)c(C(=O)O)cc3ccccc23)c1O is ____.
Found: 70
